Test: qHTS Assay to Identify Small Molecule Activators of BRCA1 Expression; note: nearly all actives have a fitted effect of over 80% in size
Conditions: MCF7-BRCA1-FFLuc reporter, luminescence, 48 h; series mostly up to 46.1 µM
Screen size: about 380,000 compounds; about 4,000 (1.1%) were called active. Another 3% or so got no clear call; they are omitted. Calls come from the whole dose curve; as a rule, active = well fitted activation curve with a large enough effect; inconclusive = small, poorly fitted or top-dose-only effect; inactive = no such curve, though single readings can be large or run the other way. For the sample, actives were picked, then their nearest neighbours and some compounds at random.
Possible outcomes: active, inactive

- Compound: "CC(=O)c1ccc(NC(=O)c2nc3nc(C)cc(C(F)F)n3n2)cc1"
  Group label: "inactive"
- Compound: "c1ccc(-c2c[nH]c(-c3ccccc3)c2)cc1"
  Group label: "inactive"
- Compound: "O=C(NCc1cccnc1)c1nc(-c2cccs2)no1"
  Group label: "inactive"
- Compound: "C/C(=N\\NC(=O)c1ccc2ccccc2c1)c1cccnc1"
  Group label: "active"
- Compound: "Oc1ccc(-c2cccc(-c3ccc(O)cc3)c2)cc1"
  Group label: "active"
- Compound: "COC(=O)[C@H](Cc1ccccc1)NC(=O)Nc1ccc(S(N)(=O)=O)cc1"
  Group label: "inactive"
- Compound: "CN(C(=O)CSc1nc2ccc(NC(=O)COc3ccccc3)cc2s1)c1ccccc1"
  Group label: "inactive"
- Compound: "Cc1ccc(-c2nc(-c3ccncc3)no2)c(C)c1"
  Group label: "active"
- Compound: "Cc1nc2c(-c3ccccc3)c(C)nn2c(C)c1CCC(=O)NCCc1ccccc1"
  Group label: "inactive"
- Compound: "O=C(c1cccs1)N1CCCC(c2nc(-c3ccc(F)cc3)no2)C1 (centres undefined)"
  Group label: "inactive"
- Compound: "COC(=O)c1ccc(Cn2c(SCC(=O)N(C)c3ccccc3)nc3ccccc32)cc1"
  Group label: "inactive"
- Compound: "C/C(=N\\NC(=O)c1cccc([N+](=O)[O-])c1)c1cccnc1"
  Group label: "inactive"
- Compound: "COC(=O)C1=C(C(=O)OC)[C@@H]2N(Cc3ccccc3)c3ccccc3[C@@]23C[C@@H](C(=O)OC)N(S(=O)(=O)c2ccc(C(F)(F)F)cc2)C3=N1"
  Group label: "inactive"
- Compound: "CN(Cc1ccccc1)c1ncnc2onc(-c3ccc(F)cc3)c12"
  Group label: "inactive"
- Compound: "C=C1C=C(C(F)F)n2ncc(C(=O)NCCc3ccccc3OC)c2N1"
  Group label: "inactive"
- Compound: "O=C(O)c1ccccc1CSc1nc2ccccc2s1"
  Group label: "active"
- Compound: "CCCCC(CC)CNC(=O)C1CCN(S(=O)(=O)c2cccc3nsnc23)CC1 (centres undefined)"
  Group label: "inactive"
- Compound: "COC(=O)c1ccccc1NC(=O)c1cnn(-c2ccc(F)cc2)c1-n1cccc1"
  Group label: "inactive"
- Compound: "Cn1c(=O)cc(OCC(=O)N2CCN(c3ccccc3)CC2)c2ccccc21"
  Group label: "inactive"
- Compound: "COc1ccc(Cn2c(C)c(C)c(C#N)c2NC(=O)Nc2ccc(F)cc2)cc1"
  Group label: "inactive"
- Compound: "Cc1ccc(-n2c(SCC(=O)N3CCC(C(=O)O)CC3)nc3ccccc3c2=O)cc1C"
  Group label: "active"
- Compound: "COc1ccccc1C(=O)NC(=S)NC12CC3CC(CC(C3)C1)C2"
  Group label: "inactive"
- Compound: "OC(COc1ccc2ccccc2c1)CN1CCOCC1 (centres undefined)"
  Group label: "active"
- Compound: "Cc1cccc(NC(=O)Cn2c(=O)n(CCC(C)C)c(=O)c3cccnc32)c1"
  Group label: "inactive"
- Compound: "COc1ccc(-c2cc(C(F)(F)F)nc(SCC(=O)N(C)Cc3ccccc3)n2)cc1OC"
  Group label: "inactive"
- Compound: "C/C(=N\\NC(=O)c1cccnc1)c1ccc(-n2ccnc2)cc1"
  Group label: "inactive"
- Compound: "c1csc(-c2nc(-c3ccncc3)no2)c1"
  Group label: "active"
- Compound: "Cc1ccc(-c2noc(-c3ccccc3C(=O)NCC3CCCO3)n2)cc1 (centres undefined)"
  Group label: "inactive"
- Compound: "O=C1CC(c2ccccc2)CC2=C1C(c1ccco1)n1nc(C(F)(F)F)nc1N2 (centres undefined)"
  Group label: "inactive"
- Compound: "CSc1ccc(/C=C/C(=O)NC23CC4CC(CC(C4)C2)C3)cc1"
  Group label: "active"
- Compound: "C=C1C=C(C)n2ncc(C(=O)Nc3ccccc3O)c2N1"
  Group label: "inactive"
- Compound: "CC1(C)Cc2ccccc2-c2c[nH]c(=O)n21"
  Group label: "inactive"
- Compound: "CC(C)c1ccc(NC(=O)Cn2c3ncccc3c(=O)n2-c2ccccc2)cc1"
  Group label: "inactive"
- Compound: "Cc1cccc(OCC(O)Cn2c(=N)n(CCN3CCOCC3)c3ccccc32)c1 (centres undefined)"
  Group label: "inactive"
- Compound: "OC(CBr)CN1CCCCC1 (centres undefined)"
  Group label: "inactive"
- Compound: "COc1ccc2cc(-c3nc(Cl)c4c5c(sc4n3)CC(C)CC5)c(=O)oc2c1 (centres undefined)"
  Group label: "inactive"
- Compound: "Cc1csc(NCC(=O)c2c[nH]c3ccccc23)n1"
  Group label: "inactive"
- Compound: "Cc1cc(C(=O)Nc2nnc(C3CC3)s2)c(C)s1"
  Group label: "active"
- Compound: "NS(=O)(=O)c1ccc(Nc2nc(-c3ccccc3)cs2)cc1"
  Group label: "active"
- Compound: "O=C(OCc1ccc(-c2ccccc2)cc1)c1cccc(O)c1"
  Group label: "inactive"
- Compound: "CCc1ccc(C(=O)CC2(O)C(=O)N(CCc3ccccc3)c3ccc(Br)cc32)cc1 (centres undefined)"
  Group label: "inactive"
- Compound: "COc1ccc(-n2c(SCC(N)=O)nc3c(oc4ccccc43)c2=O)cc1"
  Group label: "inactive"
- Compound: "O=C(COC(=O)c1ccccc1OCCOc1ccccc1)Nc1cccc(Br)c1"
  Group label: "inactive"
- Compound: "Cc1ccc(Cn2c(=O)n(CCCC(=O)NCc3ccccc3Cl)c(=O)c3ccccc32)cc1"
  Group label: "inactive"
